Data credit: patent US20220242906A1

Exercise: state measured Kd for each of the binders provided.
Target: T1, elongation initiation factor 4E (eIF4E) (UniProt P06730 2-217, limits assumed)
T1 construct: mature; In SPR it was amine-coupled to a CM5 chip with m7GTP present; also called full-length eIF4E; GS-eIF4E (biotinylated form used only for phage panning)
T1 sequence (P06730 2-217 limits assumed): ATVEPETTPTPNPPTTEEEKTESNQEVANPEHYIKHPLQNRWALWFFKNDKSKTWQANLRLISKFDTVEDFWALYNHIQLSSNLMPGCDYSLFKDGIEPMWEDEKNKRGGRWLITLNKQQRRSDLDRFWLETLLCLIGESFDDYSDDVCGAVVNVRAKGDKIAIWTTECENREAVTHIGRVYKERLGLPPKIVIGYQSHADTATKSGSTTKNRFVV
Assay: SPR (Biacore T100), eIF4E immobilised on CM5 chip, peptide as analyte
# answer = value followed by unit

Prompt: Which value of Kd has been reported for ACEMGFFKDCG (HELM PEPTIDE1{A.C.E.M.G.F.F.K.D.C.G.[am]}$PEPTIDE1,PEPTIDE1,2:R3-10:R3$$$V2.0; SMILES CSCC[C@@H]1NC(=O)[C@H](CCC(=O)O)NC(=O)[C@@H](NC(=O)[C@H](C)N)CSSC[C@@H](C(=O)NCC(N)=O)NC(=O)[C@H](CC(=O)O)NC(=O)[C@H](CCCCN)NC(=O)[C@H](Cc2ccccc2)NC(=O)[C@H](Cc2ccccc2)NC(=O)CNC1=O, EE-02 with Q8K) [EE-39 (ACEMGFFKDCG)] in the records?
Response: 109 nM

Prompt: Which value of Kd has been reported for ACELGFFQDCG (HELM PEPTIDE1{A.C.E.L.G.F.F.Q.D.C.G.[am]}$PEPTIDE1,PEPTIDE1,2:R3-10:R3$$$V2.0; SMILES CC(C)C[C@@H]1NC(=O)[C@H](CCC(=O)O)NC(=O)[C@@H](NC(=O)[C@H](C)N)CSSC[C@@H](C(=O)NCC(N)=O)NC(=O)[C@H](CC(=O)O)NC(=O)[C@H](CCC(N)=O)NC(=O)[C@H](Cc2ccccc2)NC(=O)[C@H](Cc2ccccc2)NC(=O)CNC1=O, EE-02 with M4L) [EE-21] in the records?
Response: 2500 nM

Prompt: Which value of Kd has been reported for ACDMGFFQDCG (HELM PEPTIDE1{A.C.D.M.G.F.F.Q.D.C.G.[am]}$PEPTIDE1,PEPTIDE1,2:R3-10:R3$$$V2.0; SMILES CSCC[C@@H]1NC(=O)[C@H](CC(=O)O)NC(=O)[C@@H](NC(=O)[C@H](C)N)CSSC[C@@H](C(=O)NCC(N)=O)NC(=O)[C@H](CC(=O)O)NC(=O)[C@H](CCC(N)=O)NC(=O)[C@H](Cc2ccccc2)NC(=O)[C@H](Cc2ccccc2)NC(=O)CNC1=O, EE-02 with E3D) [EE-19] in the records?
Response: 26000 nM
